# System: Ba/F3 (EGFR Δ19del/T790M/C797S) cells
# Procedure Text: Anti-proliferation experiment on cells (2), Ba/F3 (EGFR Δ19del/T790M/C797S)
# Type: cell-based
# Assay Setup: Ba/F3 EGFR, 72 h; Ba/F3 cells, 3 days; read-out: anti-proliferation effect on cells Ba/F3(Δ19del/T790M/C797S) IC50
// classify: if (IC50 < 400 nM) y else n

// below: answered compounds
1. COc1cc(N2CCC3(CC2)CN(C)C3)c(C)cc1Nc1ncc(Cl)c(Nc2ccc3c(ccn3C)c2P(C)(C)=O)n1 :: n
2. COc1cc(N2CCC(N3CCN(C)CC3)CC2)ccc1Nc1ncc(Cl)c(Nc2ccc3sccc3c2P(C)(C)=O)n1 :: n
3. COc1ccc(OCCNCc2cccnc2)cc1Nc1ncc(Cl)c(Nc2ccc3ccccc3c2P(C)(C)=O)n1 :: n

Let us examine a further case.
input: Hello, is IC50 of the following compound strictly smaller than 400 nM? `CCc1cc(Nc2ncc(Br)c(Nc3ccc4ccccc4c3P(C)(C)=O)n2)c(OC)cc1N1CCC2(CC1)CN(C)C2`
output: y
